Collected EC50 values appear next to each entry.
Tested on: HCV replicon in Huh7 cells
Experiment: HCV replicon cell-based assay
Design: species or system HCV strain 1B
Conditions: Hepatitis C virus, Huh-7; HCV replicon, Huh7 cells; read-out: EC50 range

Worked cases, EC50 given:
C=C[C@@H]1C[C@]1(NC(=O)[C@@H]1C[C@@H](Oc2nccc3ccccc23)CN1C(=O)[C@@H](NC(=O)O[C@@H]1C[C@H](C)CC[C@H]1C(C)C)C(C)(C)C)C(=O)NS(=O)(=O)C1CC1	0.1 to 1 µM
C=C[C@@H]1C[C@]1(NC(=O)[C@@H]1C[C@@H](Oc2ccnc3cc(Cl)ccc23)CN1C(=O)[C@@H](NC(=O)OC(C)(C)C)C(C)(C)C)C(=O)NS(=O)(=O)C1CC1	< 0.1 µM
C=CC1C[C@]1(NC(=O)[C@@H]1C[C@@H](Oc2nc3c(c4ccccc24)OCOC3)CN1C(=O)[C@@H](NC(=O)OC(C)(C)C)C(C)(C)C)C(=O)NS(=O)(=O)C1CC1 (stereo partly shown)	< 0.1 µM
C=C[C@@H]1C[C@]1(NC(=O)[C@@H]1C[C@@H](Oc2nccc3cc(Cl)ccc23)CN1C(=O)[C@@H](NC(=O)OC(C)(C)C)C(C)(C)C)C(=O)NS(=O)(=O)C1CC1	0.1 to 1 µM

Let's switch to this compound now.
Find the recorded EC50 belonging to `C=C[C@@H]1C[C@]1(NC(=O)[C@@H]1C[C@@H](Oc2nccc3ccc(F)cc23)CN1C(=O)[C@@H](NC(=O)OC(C)(C)C)C(C)(C)C)C(=O)NS(=O)(=O)C1CC1` and report it. < 0.1 µM

These measurements were taken from patent US7915291B2.
